# Tested on: BT-549 breast
# measurement.notes: NCI-60 one-dose screen, 48 h (100 = growth as untreated, 0 = no growth, -100 = all killed)
# protocol.conditions: 10 µM unless noted
Compounds without any hit were thinned out: in the full panel of roughly 83,000, 20% have a hit.
Measured growth accompanies every entry in the list below.

molecule: N#CC1c2ccccc2-c2ccccc2N1C(=O)c1ccccc1 (stereo not drawn)
growth / %: 21.5

molecule: N#Cc1cnc2cc(OC[C@@H](O)CO)c(NC(=O)CC3CSSC3)cc2c1Nc1ccc(OCc2cccc(F)c2)c(Cl)c1
growth / %: -71

molecule: Cc1cc(C)n(Cc2cc(C(C)(C)C)cc(C(C)(C)C)c2)c(=O)c1C#N
growth / %: 88.5

molecule: COCCNC1=C(Cl)C(=O)c2ccccc2C1=O
growth / %: 98.2

molecule: CN(C)c1cccc2[nH]c(-c3[nH]ncc3Nc3ccnc(N)n3)nc12
growth / %: -31.5

molecule: CCN1CCN(C(=O)[C@]23CCC(C)(C)C[C@H]2C2=CC[C@@H]4[C@@]5(C)CC/C(=N/O)C(C)(C)[C@@H]5CC[C@@]4(C)[C@]2(C)CC3)CC1
growth / %: 87.2

molecule: C=C(C)[C@@H]1CC[C@]2(C=O)CC[C@]3(C)[C@H](CC[C@@H]4[C@@]5(C)C/C(=C/c6cccnc6)C(=O)C(C)(C)[C@@H]5CC[C@]43C)[C@@H]12
growth / %: 75.6

molecule: Cc1cc(Cl)nc(N(CCNc2ccnc3cc(Cl)ccc23)Cc2ccco2)n1
growth / %: 54.7

###

# Tested on: SF-295 CNS
# measurement.notes: NCI-60 one-dose screen, 48 h (100 = growth as untreated, 0 = no growth, -100 = all killed)
# protocol.conditions: 10 µM unless noted
The panel holds about 83,000 compounds, 20% with a hit somewhere; the sample as a whole holds those more often. Calls of active or inactive are those of the source. How the source made its calls: active means growth percent below 10; inactive means the rest.
Measured growth accompanies every entry in the list below.

sample.smiles: COc1cc(-c2cc3ncccc3c3[nH]c(=O)c4cccnc4c23)cc(OC)c1OC
target.or.test.system: SF-295 CNS
growth: 12.6% (inactive)
//
sample.smiles: CC1(C)NCCC[C@]2(C)[C@H]3CC[C@@H]4[C@H]5[C@H](C(=O)/C=C/c6ccccn6)CC[C@]5(CO)CC[C@@]4(C)[C@]3(C)CC[C@@H]12
target.or.test.system: SF-295 CNS
growth: 88.8% (inactive)
//
sample.smiles: N=c1ccc2nc3c(cc(N)c4ccccc43)oc-2c1
target.or.test.system: SF-295 CNS
growth: -69.8% (active)
//
sample.smiles: COc1ccc2c(c1)c1nc3cc(C)c(C)cc3nc1n2CCN(C)C
target.or.test.system: SF-295 CNS
growth: 4.6% (active)
//
sample.smiles: CC/C(=N/NC(N)=O)c1ccccc1
target.or.test.system: SF-295 CNS
growth: 89.8% (inactive)
//
sample.smiles: COc1ccc(-c2cc(-c3c(C)oc4cc5occc5c(OC)c4c3=O)nc(N)c2C#N)cc1OC
target.or.test.system: SF-295 CNS
growth: 52.1% (inactive)
//
sample.smiles: CCCCN1CCCCn2c1nc1c2c(=O)n(C)c(=O)n1C
target.or.test.system: SF-295 CNS
growth: 106% (inactive)
//
sample.smiles: C=C1CC[C@@H](C(=O)OC)Cc2nc(C)ccc21
target.or.test.system: SF-295 CNS
growth: 98.4% (inactive)
//
sample.smiles: Clc1ccc2c(NCCNc3nc(-c4ccccc4)cc(-c4ccccc4)n3)ccnc2c1
target.or.test.system: SF-295 CNS
growth: -75.8% (active)
//
sample.smiles: O=C1C(Cl)=C(Nc2ccc(S(=O)(=O)c3ccc(NC4=C(Cl)C(=O)c5ccccc5C4=O)cc3)cc2)C(=O)c2ccccc21
target.or.test.system: SF-295 CNS
growth: 34.1% (inactive)
//
sample.smiles: CC(C)/C=C/CC[C@](C)(O)[C@H]1CC[C@]2(C)[C@@H]1CC[C@@H]1[C@@]3(C)C/C(=C/c4cccc(C(F)(F)F)c4)C(=O)C(C)(C)[C@@H]3CC[C@]12C
target.or.test.system: SF-295 CNS
growth: 101% (inactive)
//
sample.smiles: O=C(NCN1C(=O)c2cccc3cccc(c23)C1=O)N1CCC(Cc2ccccc2)CC1
target.or.test.system: SF-295 CNS
growth: 96.8% (inactive)
//
sample.smiles: CCN1CCN(c2nc(C)cc(N(CCCNc3ccnc4cc(Cl)ccc34)Cc3ccco3)n2)CC1
target.or.test.system: SF-295 CNS
growth: 51% (inactive)
//
sample.smiles: Cc1cc(N2CCCCC2)nc(N(CCCNc2ccnc3cc(Cl)ccc23)Cc2ccco2)n1
target.or.test.system: SF-295 CNS
growth: 20.3% (inactive)
//
sample.smiles: O=C(N/N=C\c1c(O)ccc2ccccc12)C1CC1
target.or.test.system: SF-295 CNS
growth: 30% (inactive)
//
sample.smiles: Brc1ccc2[nH]cc(-c3nc(-c4c[nH]c5ncccc45)cs3)c2c1
target.or.test.system: SF-295 CNS
growth: 5.5% (active)
//
sample.smiles: O=C(/C=C/c1cccc(O)c1)c1ccccc1O
target.or.test.system: SF-295 CNS
growth: 98.6% (inactive)
//
sample.smiles: O=C1/C(=C\C(Cl)=C/c2ccc([N+](=O)[O-])cc2)SC(=S)N1CCc1ccc(O)cc1
target.or.test.system: SF-295 CNS
growth: -31.4% (active)
//
sample.smiles: C[C@@H]1CCCCCCCCC[C@H](O)C(=O)C[C@@H](SC[C@@H](O)C(=O)O)C(=O)O1
target.or.test.system: SF-295 CNS
growth: 104% (inactive)

###

# System: NCI/ADR-RES ovarian
# measurement.notes: NCI-60 one-dose screen, 48 h
# protocol.conditions: 10 µM unless noted
Compounds without any hit were thinned out: in the full panel of roughly 83,000, 20% have a hit. The source made the active and inactive calls. The calls were made as follows: active = growth percent below 10; inactive = the rest.
Outcomes: Yes (active), No (inactive)

molecule: N#Cc1c(-c2ccc(O)cc2)c2c(N)nn(-c3ccccc3)c2[nH]c1=O
target.or.test.system: NCI/ADR-RES ovarian
label.value: No

molecule: [B-][N+](CC)(CC)c1ccccc1
target.or.test.system: NCI/ADR-RES ovarian
label.value: No

molecule: Cc1nc([P+](c2ccccc2)(c2ccccc2)c2ccccc2)c(Sc2sc(-c3ccccc3)nc2[P+](c2ccccc2)(c2ccccc2)c2ccccc2)o1
target.or.test.system: NCI/ADR-RES ovarian
label.value: No

molecule: Cc1cccc(C)c1NC(=O)CSC(=S)N1CCN(CCOCCO)CC1
target.or.test.system: NCI/ADR-RES ovarian
label.value: No

molecule: COc1cccc(-c2nn(-c3ccccc3)cc2-c2ccnc(NCCCNS(=O)(=O)c3ccc(C(F)(F)F)cc3)c2)c1
target.or.test.system: NCI/ADR-RES ovarian
label.value: No

molecule: Nc1ccc(Cl)cn1
target.or.test.system: NCI/ADR-RES ovarian
label.value: No

molecule: CC(=O)O[C@H]1CC[C@@]2(C)[C@@H](CC[C@@H]3[C@@H]2CC(=O)[C@@]2(C)[C@H]3C[C@@H](C3CCCC3=O)[C@@H]2C(C)=O)C1 (stereo not given in full)
target.or.test.system: NCI/ADR-RES ovarian
label.value: No

molecule: Cn1cc(-c2nc(-c3c[nH]c4ncccc34)cs2)c2cc(Cl)ccc21
target.or.test.system: NCI/ADR-RES ovarian
label.value: No

molecule: COc1c(N)c2c(c([N+](=O)[O-])c1OC)C(=O)OC2
target.or.test.system: NCI/ADR-RES ovarian
label.value: No

molecule: Oc1ccc(Nc2ccccc2)cc1
target.or.test.system: NCI/ADR-RES ovarian
label.value: No

molecule: NCCn1cc(-c2nc(-c3c[nH]c4ncccc34)cs2)c2ccccc21
target.or.test.system: NCI/ADR-RES ovarian
label.value: No

molecule: CC(=O)O[C@H]1CC[C@@]2(C)C(=CC[C@@H]3[C@@H]2CC[C@]2(C)C(=O)N(O)C(=O)C[C@@H]32)C1
target.or.test.system: NCI/ADR-RES ovarian
label.value: No

molecule: Cn1cc(-c2nc(-c3c[nH]c4ncccc34)cs2)c2ccccc21
target.or.test.system: NCI/ADR-RES ovarian
label.value: No

molecule: O=Cc1nc2ccccc2[nH]1
target.or.test.system: NCI/ADR-RES ovarian
label.value: No

molecule: CCCCN1CCCCn2c1nc1c2c(=O)n(C)c(=O)n1C
target.or.test.system: NCI/ADR-RES ovarian
label.value: No

molecule: Cc1ccnc2c(OCc3ccccc3)cccc12
target.or.test.system: NCI/ADR-RES ovarian
label.value: No

molecule: CC(=O)c1c(C)[nH]c(-c2nc3ccc(N4CCN(C)CC4)cc3[nH]2)c1-c1ccc2c(c1)OCCO2
target.or.test.system: NCI/ADR-RES ovarian
label.value: No

molecule: Cc1cc(N(CCCNc2ccnc3cc(Cl)ccc23)Cc2ccco2)nc(Cl)n1
target.or.test.system: NCI/ADR-RES ovarian
label.value: No

molecule: Cc1cc(C)nc(NC(N)=NCCc2ccccc2)n1
target.or.test.system: NCI/ADR-RES ovarian
label.value: No

molecule: Cn1cc(-c2csc(-c3cn(CCCN4CCCCC4)c4ccc(Br)cc34)n2)c2cccnc21
target.or.test.system: NCI/ADR-RES ovarian
label.value: No

molecule: CCCC(=O)N1CCCCC1CC (stereo not given)
target.or.test.system: NCI/ADR-RES ovarian
label.value: No

molecule: CCCCC[C@H]1CC=C2C(=O)C(Cl)=C[C@@H]2CC=CCCCC(=O)O[C@@H](CCCCC)CC=C2C(=O)C(Cl)=C[C@@H]2CC=CCCCC(=O)O[C@@H](CCCCC)CC=C2C(=O)C(Cl)=C[C@@H]2CC=CCCCC(=O)O1
target.or.test.system: NCI/ADR-RES ovarian
label.value: No

molecule: COc1ccc2c(c1)C/C(=C\c1cc(-c3ccc4c(c3)OCO4)n[nH]1)C2=O
target.or.test.system: NCI/ADR-RES ovarian
label.value: No

molecule: Cc1nn2c(-c3nc4cc(Cl)c(Cl)cc4[nH]3)c(-c3ccc(F)cc3)nc2s1
target.or.test.system: NCI/ADR-RES ovarian
label.value: No

molecule: c1csc(-c2nc(-c3cc4ccccc4c(N4CCOCC4)n3)cs2)c1
target.or.test.system: NCI/ADR-RES ovarian
label.value: No

molecule: C/C(=N\Nc1cc(C)c2ccccc2n1)c1ccccn1
target.or.test.system: NCI/ADR-RES ovarian
label.value: Yes

molecule: COc1ccc(-c2cc(-c3c(C)oc4cc5occc5c(OC)c4c3=O)nc(N)c2C#N)cc1OC
target.or.test.system: NCI/ADR-RES ovarian
label.value: No

molecule: CC(=O)c1c(C)[nH]c(-c2nc3ccc(N4CCN(C)CC4)cc3[nH]2)c1-c1ccc(N(C)C)cc1
target.or.test.system: NCI/ADR-RES ovarian
label.value: No

molecule: CCc1ccccc1NC(=O)c1sc2nc3c(cc2c1N)CCCC3
target.or.test.system: NCI/ADR-RES ovarian
label.value: No

molecule: COc1ccc(-c2cc(-c3cccs3)n(N=O)c(=O)c2C#N)cc1
target.or.test.system: NCI/ADR-RES ovarian
label.value: No

molecule: C[C@]12CC[C@@H]3c4ccc(O)cc4CC[C@H]3[C@@H]1C[C@H](O)[C@@H]2O
target.or.test.system: NCI/ADR-RES ovarian
label.value: No

molecule: COC(=O)CNc1nc(N(C)O)nc(N(C)O)n1
target.or.test.system: NCI/ADR-RES ovarian
label.value: No

molecule: COc1ccc2nc(-c3cc(-c4cc(OC)c(OC)c(OC)c4)n[nH]3)[nH]c2c1
target.or.test.system: NCI/ADR-RES ovarian
label.value: Yes

molecule: COc1cccc(-c2nn(-c3ccccc3)cc2-c2ccnc(NCCNS(=O)(=O)c3ccc(C(F)(F)F)cc3)c2)c1
target.or.test.system: NCI/ADR-RES ovarian
label.value: No

molecule: c1cnc2[nH]cc(-c3csc(-c4cn(CCCN5CCCCC5)c5ccccc45)n3)c2c1
target.or.test.system: NCI/ADR-RES ovarian
label.value: No

molecule: COc1ccc2c(c1)c(-c1nc(-c3c[nH]c4ncccc34)cs1)cn2CCN
target.or.test.system: NCI/ADR-RES ovarian
label.value: No

molecule: Cc1ccsc1-c1ccc2c(c1)COC2(CCCN(C)C)c1ccc(F)cc1 (stereo not given)
target.or.test.system: NCI/ADR-RES ovarian
label.value: No

molecule: COc1ccc2c(c1)c(-c1nc(-c3c[nH]c4ncccc34)cs1)cn2CCNC(=O)OC(C)(C)C
target.or.test.system: NCI/ADR-RES ovarian
label.value: No

molecule: COc1cc2[nH]c(C(=O)c3cc(OC)c(OC)c(OC)c3)c(N)c2cc1C#CC1CC1
target.or.test.system: NCI/ADR-RES ovarian
label.value: No

molecule: COc1cc(-c2cc3ncccc3c3nc(OCCN(C)C)c4cccnc4c23)cc(OC)c1OC
target.or.test.system: NCI/ADR-RES ovarian
label.value: Yes
